Reference source: patent US5360803A

Test system: CV-1 cells
MEASUREMENT DESCRIPTION: selective killing assay, colony number reduced to 50% of control, normal monkey kidney epithelial cell line CV-1
Assay type: cell-based
RUN PARAMETERS: Primates, CV-1, Table III; normal monkey kidney epithelial cells, 24 hours treatment, colony count after 7 to 10 days
Kindly state IC50 for each of the entries shown.
Numbers only, in µg/mL.

Batch request: IC50 per item, same order as input.
1. CC[N+]1=C(C=c2sc(=C3Oc4ccc5ccccc5c4N3C)c(=O)n2Cc2ccccc2)SCC1
2. CCn1c(=Cc2sc3c4ccccc4ccc3[n+]2CC)sc(=C2Sc3ccccc3N2C)c1=O
3. CCn1c(=C2CC[n+]3c2sc2ccccc23)sc(=C2Sc3ccccc3N2C)c1=O
4. CCn1c(=Cc2[se]c3ccccc3[n+]2CC)sc(=C2Sc3ccccc3N2C)c1=O
5. CCN1C(=CC=CC=Cc2sc3ccccc3[n+]2CC)Oc2ccccc21 [F, reference compound]
6. CC[n+]1c(C=c2sc(=C3Sc4ccc5ccccc5c4N3C)c(=O)n2CC(=O)OC)sc2c3ccccc3ccc21
7. CCN1C(=c2sc(=Cc3oc4ccccc4[n+]3CC)n(CC)c2=O)Sc2ccccc21

10
10
10
20
1.5
20
10

Can you give me IC50 for all of these, one by one?
1. CCCN1C(=CC=CC=Cc2oc3ccccc3[n+]2CCC)Oc2ccccc21 [E, reference compound]
2. CCn1c(=CC2=[N+](C)c3ccccc3C2(C)C)sc(=C2Sc3ccccc3N2C)c1=O

6
10

Field: IC50. Fill in for each record below.
1. CCn1c(=Cc2ccc3ccccc3[n+]2CC)sc(=C2Sc3ccccc3N2C)c1=O
2. CCn1c(=Cc2sc3ccccc3[n+]2CC)sc(=C2SC3=C(CCCC3)N2C)c1=O

2
10
